target: Glutamate NMDA receptor; assay: Inhibition of stimulus-evoked CA1 pyramidal cell NMDA receptor of the rat hippocampus.; type: functional, tissue-based
Endpoint: IC50 (mM)
Value expressed in mM; do not type the unit.

# input Consider the compound NCCC/N=c1\c(O)c(O)c1=O . State its measured IC50.
# output 5.3

###

target: Glutamate NMDA receptor; assay: Inhibition of stimulus-evoked […] NMDA receptor response in lateral perforant path of the rat hippocampus.; format: functional, tissue-based
pIC50: −log10 of the molar value.
Endpoint: pIC50

# input Give pIC50 for NCCC/N=c1\c(O)c(O)c1=O tested on Glutamate NMDA receptor.
# output < 2.00

From: ChEMBL document CHEMBL1128177
